# Tested on: Sk-ChA-1 cells
# protocol_summary: In vitro cytotoxicity, SRB total protein assay, Sk-ChA-1
# Format: cell-based
# cond: Homo sapiens, 48 h
measured_property: IC50 (µM)
Respond numerically; units are µM and should not be typed.

Query: Entry under review: COc1cc(/C=C/C(=O)CC(=O)/C=C/c2ccc(O)c(OC)c2)ccc1O [free curcumin, curcumin] . Reported IC50?
Reply: 21.5

###

# protocol_summary: Circulation kinetics of Cy7-labeled curcumin micelles in mice
# Assay type: in vivo, BALB/c mice
# cond: female, BALB/c, mouse, plasma, iv, 7.8 mg/kg
measured_property: clearance (mL/min/kg)
Respond numerically; units are mL/min/kg and should not be typed.

Query: Entry under review: COc1cc(/C=C/C(=O)CC(=O)/C=C/c2ccc(O)c(OC)c2)ccc1O [free curcumin, curcumin] . Reported clearance?
Reply: 2.62

Recorded values, source paper PMC7927141.
